# experimental protocol: In vivo toxicity (LD50, survival, histology)
# Set-up: species or system mice
# settings: mouse, in vivo, ip, mice
observation type: LD50

For reference, reported LD50 for NCCCC[C@H](N)C(=O)NN(CC(=O)O)c1ccc(O)cc1 [Lys-CHP] stands at > 1000 mg/kg

For reference, reported LD50 for C[C@H](N)C(=O)NN(CC(=O)O)c1ccc(O)cc1 [Ala-CHP] stands at > 1000 mg/kg

For reference, reported LD50 for N[C@@H](CCC(=O)O)C(=O)NN(CC(=O)O)c1ccc(O)cc1 [Glu-CHP] stands at > 1000 mg/kg

For reference, reported LD50 for CC(C)C[C@H](N)C(=O)NN(CC(=O)O)c1ccc(O)cc1 [Leu-CHP] stands at 750 to 1000 mg/kg

For reference, reported LD50 for N[C@@H](Cc1ccccc1)C(=O)NN(CC(=O)O)c1ccc(O)cc1 [Phe-CHP] stands at 400 mg/kg

For reference, reported LD50 for CCOC(=O)CN(N)c1ccc(O)cc1 [CHP-OEt] stands at 400 to 550 mg/kg
